molecular target: T1, TrkA-IgG (UniProt P04629 33-423, limits assumed); assay: SPR (BIACORE 2000), TrkA-IgG immobilised on CM-5 chip, 'separated 1:1' fit
T1 construct: also called specific antigen TrkA-IgG; not shown: IgG part of the fusion
T1 sequence (P04629 33-423 limits assumed): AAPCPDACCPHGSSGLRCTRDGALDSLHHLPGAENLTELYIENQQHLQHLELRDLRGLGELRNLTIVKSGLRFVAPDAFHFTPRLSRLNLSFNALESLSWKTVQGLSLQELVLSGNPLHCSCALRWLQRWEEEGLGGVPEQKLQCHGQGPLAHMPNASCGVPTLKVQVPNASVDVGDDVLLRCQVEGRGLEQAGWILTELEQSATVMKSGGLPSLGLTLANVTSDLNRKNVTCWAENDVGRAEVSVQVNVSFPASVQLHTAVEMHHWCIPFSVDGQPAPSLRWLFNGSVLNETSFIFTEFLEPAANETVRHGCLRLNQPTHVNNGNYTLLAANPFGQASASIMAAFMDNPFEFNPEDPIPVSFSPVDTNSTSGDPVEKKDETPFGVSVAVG
Give measured koff for each item. Keep answers brief.
Give just the numeric value; s⁻¹ need not be written.

Input: Can you share its koff? I mean this binder: BXhVH3VL3 (antibody, human IgG1, V domains shown, Human IgG1 constant regions (IgG1 expression vectors); also called hVH3/hVL3) VH: EVQLLESGGGLVQPGGSLRLSCAASGFTFSTYTMSWVRQAPGKRLEWVAYISKGGGSTYYPDTVKGRFTISRDNSKNTLYLQMNSLRAEDTAVYYCARGAMYGNDFFYPMDYWGQGTTVTVSS VL: QIVLTQSPATLSLSPGERATLSCSASSSVSYMHWYQQKPGQSPRLLIYTTSNLASGIPSRFSGSGSGTFYTLTISSLEPEDFAVYYCHQWSSYPWTFGGGTKLEIK
Output: 0.000442

Input: Can you share its koff? I mean this binder: BXhVH5VL3 (antibody, human IgG1, V domains shown, Human IgG1 constant regions (IgG1 expression vectors); also called hVH5/hVL3) VH: EVKLLESGGGLVQPGGSLRLSCAASGFTFSTYTMSWVRQTPGKRLEWVAYISKGGGSTYYPDTVKGRFTISRDNSKNTLYLQMNSLRAEDTAVYYCARGAMYGNDFFYPMDYWGQGTTVTVSS VL: QIVLTQSPATLSLSPGERATLSCSASSSVSYMHWYQQKPGQSPRLLIYTTSNLASGIPSRFSGSGSGTFYTLTISSLEPEDFAVYYCHQWSSYPWTFGGGTKLEIK
Output: 0.000638

Input: Can you share its koff? I mean this binder: muMNACEP (antibody, V domains shown, Murine monoclonal antibody as disclosed in EP1181318; also called murine antibody MNAC13; MNAC13) VH: EVKLMESGGGLVQPGGSLKLSCAASGFTFSTYTMSWARQTPEKRLEWVAYISKGGGSTYYPDTVKGRFTISRDNAKNTLYLQMSSLKSEDTALYYCARGAMYGNDFFYPMDYWGQQTSVTVSS VL: DIVLSQSPAIMSASLGEEITLTCSASSSVSYMHWYQQKSGTSPKLLITTTSNLASGVPSRFSGSGSGTFYSLTISSVEAEDAADYYCHQWSSYPWTFGGGTKLEIK
Output: 0.000167

Input: Can you share its koff? I mean this binder: HuMNACWOv (antibody, V domains shown, Variant of HuMNACWO whose heavy chain CDR3 is replaced with that of muMNACEP; also called hVHWOv/hVLWO; HuVHWOv/HuVLWO) VH: EVQLLESGGGLVQPGGSLRLSCAASGFTFSTYTMSWARQAPGKGLEWVAYISKGGGSTYYPDTVKGRFTISRDNSKNTLYLQMNSLRAEDSAVYYCARGAMYGNDFFYPMDYWGQGTLVTVSS VL: DIVLTQSPSSLSASVGDRVTITCSASSSVSYMHWYQQKPGQAPKLLIYTTSNLASGVPSRFSGSGSGTDYTLTISSLQPEDVATYYCHQWSSYPWTFGGGTKVEIK
Output: 0.00386
